# subject of test: Bcl-B (Homo sapiens, UniProt Q9HD36)
# Construct: lacking their C-terminal transmembrane domains (last 20 amino-acids) (“ΔTM”); made in house; host or cells: E. coli XL-1 Blue (pGEX 4T-1)
# Sequence (Q9HD36 1-184 limits assumed): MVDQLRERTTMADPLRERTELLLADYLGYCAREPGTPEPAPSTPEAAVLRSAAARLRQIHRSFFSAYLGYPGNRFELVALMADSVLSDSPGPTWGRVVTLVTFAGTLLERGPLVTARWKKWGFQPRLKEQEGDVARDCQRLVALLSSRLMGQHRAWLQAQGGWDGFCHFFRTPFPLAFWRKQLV
# measurement protocol: FPA competitive FITC-Bid BH3 peptide displacement, Bcl-B
# Format: binding
# measurement parameters: 100 nM GST-Bcl-B, 5 nM FITC-Bid BH3 peptide, read-out: IC50 (μM) for Gambogic acid
measurement type: IC50 (µM)
Output spec: scalar in µM, unitless text.

Prompt line: Consider the compound CC(C)=CCC[C@]1(C)C=Cc2c(O)c3c(c(CC=C(C)C)c2O1)O[C@]12C(=C[C@@H]4C[C@H]1C(C)(C)O[C@@]2(C/C=C(/C)C(=O)O)C4=O)C3=O and give its measured IC50.
Response line: 0.66

====

# subject of test: Bcl-2 (Homo sapiens)
# Construct: lacking their C-terminal transmembrane domains (last 20 amino-acids) (“ΔTM”); made in house; host or cells: E. coli XL-1 Blue (pGEX 4T-1)
# Sequence (P10415 1-219 limits assumed): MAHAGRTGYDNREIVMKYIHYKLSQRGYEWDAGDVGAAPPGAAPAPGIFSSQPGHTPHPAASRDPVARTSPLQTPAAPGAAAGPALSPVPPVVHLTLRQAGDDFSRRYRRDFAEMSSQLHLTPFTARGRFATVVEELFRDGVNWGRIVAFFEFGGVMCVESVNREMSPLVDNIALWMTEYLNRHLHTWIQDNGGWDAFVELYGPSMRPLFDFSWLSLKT
# measurement protocol: FPA competitive FITC-Bid BH3 peptide displacement, Bcl-2
# Type: binding
# measurement parameters: 100 nM GST-Bcl-2, 5 nM FITC-Bid BH3 peptide, read-out: IC50 (μM) for Gambogic acid
measurement type: IC50 (µM)
Output spec: scalar in µM, unitless text.

Prompt line: Consider the compound CC(C)=CCC[C@]1(C)C=Cc2c(O)c3c(c(CC=C(C)C)c2O1)O[C@]12C(=C[C@@H]4C[C@H]1C(C)(C)O[C@@]2(C/C=C(/C)C(=O)O)C4=O)C3=O and give its measured IC50.
Response line: 1.21

====

# subject of test: Mcl-1 (Homo sapiens, UniProt Q07820)
# Construct: lacking their C-terminal transmembrane domains (last 20 amino-acids) (“ΔTM”); made in house; host or cells: E. coli XL-1 Blue (pGEX 4T-1)
# Sequence (Q07820 1-330 limits assumed): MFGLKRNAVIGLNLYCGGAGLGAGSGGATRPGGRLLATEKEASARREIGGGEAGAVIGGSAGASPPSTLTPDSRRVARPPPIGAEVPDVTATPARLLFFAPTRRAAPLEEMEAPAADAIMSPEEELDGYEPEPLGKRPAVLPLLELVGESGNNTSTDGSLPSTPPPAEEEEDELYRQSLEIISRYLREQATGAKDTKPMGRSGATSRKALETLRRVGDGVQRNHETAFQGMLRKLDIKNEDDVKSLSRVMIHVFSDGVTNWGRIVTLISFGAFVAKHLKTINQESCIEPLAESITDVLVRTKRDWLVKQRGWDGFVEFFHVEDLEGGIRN
# measurement protocol: FPA competitive FITC-Bid BH3 peptide displacement, Mcl-1
# Format: binding
# measurement parameters: 100 nM GST-Mcl-1, 5 nM FITC-Bid BH3 peptide, read-out: IC50 (μM) for Gambogic acid
measurement type: IC50 (µM)
Output spec: scalar in µM, unitless text.

Prompt line: Consider the molecule CC(C)=CCC[C@]1(C)C=Cc2c(O)c3c(c(CC=C(C)C)c2O1)O[C@]12C(=C[C@@H]4C[C@H]1C(C)(C)O[C@@]2(C/C=C(/C)C(=O)O)C4=O)C3=O and give its measured IC50.
Response line: 0.79

====

# subject of test: Bcl-W (Homo sapiens)
# Construct: lacking their C-terminal transmembrane domains (last 20 amino-acids) (“ΔTM”); made in house; host or cells: E. coli XL-1 Blue (pGEX 4T-1)
# Sequence (Q92843 1-173 limits assumed): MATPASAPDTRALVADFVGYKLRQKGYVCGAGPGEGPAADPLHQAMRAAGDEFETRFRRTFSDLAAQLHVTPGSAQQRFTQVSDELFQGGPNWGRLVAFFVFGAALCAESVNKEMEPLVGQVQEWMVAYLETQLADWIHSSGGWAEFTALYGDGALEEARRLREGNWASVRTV
# measurement protocol: FPA competitive FITC-Bid BH3 peptide displacement, Bcl-W
# Format: binding
# measurement parameters: 100 nM GST-Bcl-W, 5 nM FITC-Bid BH3 peptide, read-out: IC50 (μM) for Gambogic acid
measurement type: IC50 (µM)
Output spec: scalar in µM, unitless text.

Prompt line: Consider the molecule CC(C)=CCC[C@]1(C)C=Cc2c(O)c3c(c(CC=C(C)C)c2O1)O[C@]12C(=C[C@@H]4C[C@H]1C(C)(C)O[C@@]2(C/C=C(/C)C(=O)O)C4=O)C3=O [Gambogic acid] and give its measured IC50.
Response line: 2.02

====

# subject of test: Bcl-XL (Homo sapiens)
# Construct: lacking their C-terminal transmembrane domains (last 20 amino-acids) (“ΔTM”); made in house; host or cells: E. coli XL-1 Blue (pGEX 4T-1)
# Sequence (Q07817 1-213 limits assumed): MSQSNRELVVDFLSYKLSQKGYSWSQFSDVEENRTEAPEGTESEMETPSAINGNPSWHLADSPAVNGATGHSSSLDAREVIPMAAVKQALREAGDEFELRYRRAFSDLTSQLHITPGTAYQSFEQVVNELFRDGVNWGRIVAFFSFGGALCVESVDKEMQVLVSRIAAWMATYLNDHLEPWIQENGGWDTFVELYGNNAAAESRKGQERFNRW
# measurement protocol: FPA competitive FITC-Bid BH3 peptide displacement, Bcl-XL
# Type: binding
# measurement parameters: 100 nM GST-Bcl-XL, 5 nM FITC-Bid BH3 peptide, read-out: IC50 (μM) for Gambogic acid
measurement type: IC50 (µM)
Output spec: scalar in µM, unitless text.

Prompt line: Test system Bcl-XL (Homo sapiens); read-out IC50; what value for CC(C)=CCC[C@]1(C)C=Cc2c(O)c3c(c(CC=C(C)C)c2O1)O[C@]12C(=C[C@@H]4C[C@H]1C(C)(C)O[C@@]2(C/C=C(/C)C(=O)O)C4=O)C3=O ?
Response line: 1.47
